param class (str): category from melting point; see ranges bucket 1: < 90 °C; bucket 2: ≥ 90 °C and < 200 °C; bucket 3: ≥ 200 °C

>>> assigned_category("CC(CO)c1c(O)c(O)c2c(c1O)C(=O)C(=O)C1C(C)(C)CCCC21C (configuration not stated)")
"bucket 3"
>>> assigned_category("C=C(C)CCCCCCCCCCCCCCC")
"bucket 1"
>>> assigned_category("O=C(NC(CO)C(O)c1ccc([N+](=O)[O-])cc1)C(Cl)Cl (configuration not stated)")
"bucket 2"
>>> assigned_category("O=C(c1cccs1)c1nn2c(nc(=O)c3ccccc32)s1")
"bucket 3"
>>> assigned_category("Cc1nc2cc3ccccc3cc2o1")
"bucket 1"
>>> assigned_category("COc1cc2c3c(c4ccc(OC)c(OC)c4c2cc1OC)CN1CCCC1C3 (configuration not stated)")
"bucket 3"
>>> assigned_category("COc1ccc(C2(C)C=C(C)N=N2)cc1 (configuration not stated)")
"bucket 1"
>>> assigned_category("FC=C(F)F")
"bucket 1"
>>> assigned_category("CCOC=Nc1c(C#N)cnn1-c1ncnc2c1cnn2C")
"bucket 2"
>>> assigned_category("CN(C)c1ccc(N=c2cc(-c3ccccc3)cc(-c3ccccc3)s2)cc1")
"bucket 2"
>>> assigned_category("NNC(=O)c1cc2ccccc2s1")
"bucket 2"
>>> assigned_category("O=C1Cc2cccc(F)c21")
"bucket 1"
>>> assigned_category("Nc1cccc2cc(O)ccc12")
"bucket 2"
>>> assigned_category("OCc1ccc(-c2cccs2)cc1")
"bucket 2"
>>> assigned_category("CCCc1ccc(-c2ccc(C(=O)O)cc2)cc1")
"bucket 3"
>>> assigned_category("CC(C)[C@H](NC(=O)OCc1ccccc1)C(=O)O")
"bucket 1"
>>> assigned_category("O=P(O)(O)Cc1ccccc1")
"bucket 2"
>>> assigned_category("O=C(CCl)c1cc(C(=O)CCl)c([N+](=O)[O-])cc1[N+](=O)[O-]")
"bucket 2"
>>> assigned_category("CC1=NN(c2ccccc2)C(=O)C1")
"bucket 2"
>>> assigned_category("CNC(=O)Oc1ccccc1OC(CCl)OC (configuration not stated)")
"bucket 1"
>>> assigned_category("Cn1c(/C(C#N)=N/Nc2cccc(O)c2)nc2ccccc21")
"bucket 3"
>>> assigned_category("CC(CC(C)=NO)=NO")
"bucket 2"
>>> assigned_category("N#CC(C#N)=c1c(F)c(F)c(=C(C#N)C#N)c(F)c1F")
"bucket 3"
>>> assigned_category("COc1ccc(C(CCC(=O)O)C(C)(C)C(=O)O)cc1 (configuration not stated)")
"bucket 2"
>>> assigned_category("C=C(C)C1CC=C(C)CC1 (configuration not stated)")
"bucket 1"
>>> assigned_category("COc1cccc(C)c1C")
"bucket 1"
>>> assigned_category("Cc1ccc(NC(=O)CC2C(=O)C3(C)CCC2C3(C)C)cc1 (configuration not stated)")
"bucket 2"
>>> assigned_category("CSc1ncnc2c1ncn2C1OC(CO)C(O)C1O (configuration not stated)")
"bucket 2"
>>> assigned_category("O=C(Nc1ccccc1)N(Cc1ccc(Cl)cc1)C1CCCC1")
"bucket 2"
>>> assigned_category("CC(C)C(C)C=CC(C)C1CCC2C3=CC=C4CC(O)CCC4(C)C3=CCC21C (configuration not stated)")
"bucket 2"
>>> assigned_category("FC(F)(F)C(F)(F)C(F)(F)C(F)(F)C(F)(F)C(F)(F)C(F)(F)C(F)(F)I")
"bucket 1"
